Recorded measurements of Reverse potential, one per entry
test: Reversal potential is determined electrophysiologically against the GABA A receptor; assay type: functional
experimental-endpoint: Reverse potential

| smiles-code | experimental-value |
| --- | --- |
| Oc1cc(C2CCNCC2)sn1 | 5.5 |
| Oc1cc(C2=CCNCC2)on1 | 5.6 |
| Oc1cc(C2CCNCC2)on1 | 5.9 |
| Oc1cc(C2CCNCC2)no1 | 4.3 |
| O=C(O)C1=CCNCC1 | 5.2 |
| Oc1cc(C2=CCNCC2)sn1 | 5.3 |

----------
test: physchem
Description: PKa values of the compound
experimental-endpoint: pKa

| smiles-code | experimental-value |
| --- | --- |
| Oc1cc(C2CCNCC2)on1 | 5.3 |
| Oc1cc(C2=CCNCC2)on1 | 5.1 |
| Oc1cc(C2CCNCC2)sn1 | 6.9 |
